Here, each record is paired with measured % block data.
Molecular target: T1, human CX3CR1 (human, UniProt P49238 1-355)
T1 construct: overexpressed on CHO, BA/F3 or HEK293T cells; also called huCX3CR1; hCX3CR1
T1 sequence: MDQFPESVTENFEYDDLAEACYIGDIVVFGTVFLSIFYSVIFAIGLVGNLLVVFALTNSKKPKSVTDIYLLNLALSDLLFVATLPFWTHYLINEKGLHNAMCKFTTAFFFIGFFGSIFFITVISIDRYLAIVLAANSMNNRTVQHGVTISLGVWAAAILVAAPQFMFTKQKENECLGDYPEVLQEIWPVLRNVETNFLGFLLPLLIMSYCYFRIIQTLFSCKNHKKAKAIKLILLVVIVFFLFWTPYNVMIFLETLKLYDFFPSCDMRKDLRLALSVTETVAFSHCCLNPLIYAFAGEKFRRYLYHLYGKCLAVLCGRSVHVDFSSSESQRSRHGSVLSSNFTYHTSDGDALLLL
Test: A647-fractalkine competition FACS, BA/F3-huCX3CR1
Method: Periplasmic extracts were screened in a human CX3CR1/human Fractalkine FACS competition assay to assess the blocking capacity of the expressed VHHs. Human CX3CR1 was presented on CHO cells overexpressing CX3CR1. […] After one hour incubation at 4 C, cells were washed three times before read out was performed on a FACS Array (Becton Dickinson). First a gate was set on the intact cells as determined from the scatter profile. […]
Report the value in % with no unit label.

CX3CR1BIIPMP54G3 (VHH, also called 54G03; not shown: C-terminal c-myc and His6 tags) VHH: EVQLVESGGGSVQAGESLRLSCAASGSIFSSNAMAWYRQAPGKQRDLVALINSVGITKYADSVKGRFTISRDNAKNTVYLQMNSLKPEDTAVYYCTSDPRRGWDTRYWGQGTLVTVSS	98

Consider the record given below.
Form: binder = CX3CR1BIIPMP54A7 (VHH, also called 54A07; not shown: C-terminal c-myc and His6 tags) VHH: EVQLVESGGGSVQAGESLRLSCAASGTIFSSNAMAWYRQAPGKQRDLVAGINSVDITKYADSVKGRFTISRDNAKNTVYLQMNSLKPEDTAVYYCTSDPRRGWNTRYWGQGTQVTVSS ; % block = 81
